Data credit: paper PMC5442318

System: P. falciparum stage V female gametocytes
Assay: P. falciparum female gametocyte activation assay (Pf FGAA), 24 h or 48 h preincubation, Pfs25 expression readout
Type: cell-based, Plasmodium falciparum NF54
Settings: Plasmodium falciparum; P. falciparum female gametocytes; mean; read-out: Gametocytes mean Pf FGAA IC50
metric: IC50 (µM)

Examples with answers:
{"columns": ["molecule", "experimental_value"],
 "data": [
  ["CC[C@H]1CN2CCc3cc(OC)c(OC)cc3[C@@H]2C[C@@H]1C[C@H]1NCCc2cc(OC)c(OC)cc21", 2.73],
  ["N#Cc1c(F)cc(N2CCC(NCC[C@H](N)Cc3ccc(F)c(F)c3)CC2)cc1F", 0.73],
  ["CCCC(=O)NC(c1ccc(C)cc1)c1ccc2cccnc2c1O (centres unmarked)", 1.73],
  ["N#CC(c1ccc(Br)cc1)c1ccc2c(C(F)(F)F)cc(C(F)(F)F)nc2n1 (centres unmarked)", 1.16],
  ["COc1ccc(NC(=O)Nc2ccc(Nc3nc(C)cc(N4CCCC4)n3)cc2)cc1", 1.08],
  ["CC1Cc2ccccc2N1S(=O)(=O)c1cccc(C(=O)Nc2nc(-c3ccccn3)cs2)c1 (centres unmarked)", 0.34]
]}

a: COc1ccc(C[C@H](N)C(=O)N[C@H]2[C@@H](O)[C@H](n3cnc4c(N(C)C)ncnc43)O[C@@H]2CO)cc1
b: O=C(c1ccc([N+](=O)[O-])o1)N1CCN(c2nc3c(Cl)cccc3s2)CC1
Query: // pick larger IC50 from pair: a vs b Mark your answer with the label of the selected entry.
Reply: b

====

Test system: P. falciparum stage V female gametocytes
Experiment: P. falciparum female gametocyte activation assay (Pf FGAA), 24 h or 48 h preincubation, Pfs25 expression readout
Type: cell-based, Plasmodium falciparum NF54
Settings: Plasmodium falciparum; P. falciparum female gametocytes; mean; read-out: Gametocytes mean Pf FGAA IC50
pIC50: −log10 of the molar value.
metric: pIC50

{"columns": ["molecule", "metric", "experimental_value"],
 "data": [
  ["C=CCc1cccc(CN2CCC(c3cc(O)nc(-c4ccccn4)n3)CC2)c1O [TCMDC-124851]", "pIC50", 5.76],
  ["NC1CCN(CCc2ccc(NS(=O)(=O)c3ccc(-c4ccccc4)cc3)cc2)CC1 [TCMDC-134085]", "pIC50", 6.12],
  ["O=C(Nc1ccc([N+](=O)[O-])cc1)Nc1cc(OCC(F)(F)F)cc(OCC(F)(F)F)c1 [TCMDC-124533]", "pIC50", 5.94]
]}

A: CN1CCC(N2CCC(Oc3cccc(C(=O)NCCCC4CCCC4)c3)CC2)CC1 [TCMDC-124677]
B: Clc1cc(Br)ccc1-c1ccc(CNCC2CCNCC2)o1 [TCMDC-124617]
Query: Please indicate which has the smaller reported pIC50: A , or B . Reply with the label of the item you choose.
Reply: A
(A: 5.83, B: 6.14)

====

Tested on: HepG2 cells
Experiment: HepG2 cytotoxicity assay
Format: cell-based
Conditions: HepG2 cells; mean
metric: HepG2 cells mean TOX50 (µM)
Your answer is read as µM, so omit the unit and give the number.

Sample answers from the record:
{"columns": ["compound", "measurement_target", "units_label", "experimental_value"],
 "data": [
  ["O=C(O)C(F)(F)F.O=c1[nH]ccc2nc(N[C@@H]3CCNC3)nc(Nc3cc(Cl)cc(Cl)c3)c12", "HepG2 cells", "µM", 4.79],
  ["O=C(Nc1cc(C(F)(F)F)cc(C(F)(F)F)c1)Nc1ccc(Cl)c(Cl)c1", "HepG2 cells", "µM", 3.07],
  ["SC(=Nc1ccc(Cl)c(Cl)c1)NN=Cc1ccccn1", "HepG2 cells", "µM", 3.47],
  ["COc1ccc(CCNCCCCCCNCCc2ccc(Cl)cc2)c(Cl)c1OC.Cl", "HepG2 cells", "µM", 5.54]
]}

Query: Which measured HepG2 cells mean TOX50 value corresponds to COc1ccc(C[C@H](N)C(=O)N[C@H]2[C@@H](O)[C@H](n3cnc4c(N(C)C)ncnc43)O[C@@H]2CO)cc1 ?
Reply: 1.80

Query: I am curious: what HepG2 cells mean TOX50 value has been reported for CC(C)c1ccc(CN2CCC(CNC(=O)c3cc(-c4cccc(F)c4)cs3)C2)cc1.O=C(O)C(F)(F)F (stereo not shown) ?
Reply: 6.24

Query: Endpoint output: HepG2 cells mean TOX50 of CN1CCCC(CN2CCN(Cc3cccc(-c4ccc(-c5nc6cc(C(F)(F)F)ccc6[nH]5)cc4)c3)CC2)C1.O=C(O)C(F)(F)F (stereo not shown) . Value?
Reply: 4.07

Query: Which HepG2 cells mean TOX50 is listed for CC(C)(C)c1ccc(CN2CCC(CNC(=O)c3cc(-c4ccccc4C(F)(F)F)cs3)C2)cc1.O=C(O)C(F)(F)F (stereo not shown) ?
Reply: 9.77

Query: Can you share its HepG2 cells mean TOX50? I mean this compound: CC(C)(C)c1ccc(CN2CCC(CNC(=O)c3cc(-c4ccccc4F)cs3)C2)cc1.O=C(O)C(F)(F)F (stereo not shown)
Reply: 9.30

Query: GET /values?readout=HepG2 cells mean TOX50&item= FC(F)(F)c1ccc2[nH]c(-c3cccc(-c4cccc(CNCCN5CCNCC5)c4)c3)nc2c1.O=C(O)C(F)(F)F
Reply: 6.61

Query: I am curious: what HepG2 cells mean TOX50 value has been reported for COc1ccccc1CNc1ccnc(N2CC(Oc3ccc(F)cc3)C2)n1 ?
Reply: 73.68
